target: UniProt:P35398; experiment: activators of RORA ligand-binding domain fusion – cell-based, CHO-K1, Gal4-RORA LBD, luciferase luminescence, counter-screen for SF-1 activator project, dose response (AID 675); conditions: CHO-K1 RORA luciferase reporter, luminescence activation
Sequence (P35398 whole entry, looked up, the tested form may be a part): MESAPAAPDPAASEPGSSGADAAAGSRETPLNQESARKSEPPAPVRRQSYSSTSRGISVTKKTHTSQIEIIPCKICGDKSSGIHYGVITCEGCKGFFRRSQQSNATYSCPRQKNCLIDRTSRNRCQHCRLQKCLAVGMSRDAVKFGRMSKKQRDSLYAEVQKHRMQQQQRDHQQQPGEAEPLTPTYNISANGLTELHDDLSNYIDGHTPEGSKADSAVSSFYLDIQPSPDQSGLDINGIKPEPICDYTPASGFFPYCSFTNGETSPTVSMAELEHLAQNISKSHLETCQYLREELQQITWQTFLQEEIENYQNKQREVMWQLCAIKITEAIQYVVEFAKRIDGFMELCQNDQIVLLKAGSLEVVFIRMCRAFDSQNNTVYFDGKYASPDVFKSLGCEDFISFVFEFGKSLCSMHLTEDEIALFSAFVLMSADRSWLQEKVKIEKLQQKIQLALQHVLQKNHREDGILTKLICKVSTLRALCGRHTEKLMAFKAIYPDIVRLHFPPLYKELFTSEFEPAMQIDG
The source made the active and inactive calls.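 How the source made its calls: active means EC50 at or below a set limit for turning on the RORA orphan receptor reporter; inactive means the rest.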
Classes to choose from: active, inactive

# input Short answer needed: outcome of this test for Cc1ccc(C2/C(=C(\O)c3cnn(-c4ccccc4)c3C)C(=O)C(=O)N2CCN(C)C)o1 (stereo not drawn) ?
# output active

Next:
# input Short answer needed: outcome of this test for CC1(C)CC(=O)C(C=Nc2ccccc2)=C(O)C1 ?
# output inactive

# input Short answer needed: outcome of this test for O=C1CCCC(O)=C1C=Nc1ccc(O)cc1 ?
# output inactive

# input Short answer needed: outcome of this test for COC(=O)c1ccc(/C(O)=C(\C#N)c2nc3ccccc3s2)cc1 ?
# output active

# input Short answer needed: outcome of this test for COc1cc(C2C3C(=O)N(c4ccccc4)C(=O)C3ON2c2ccccc2)ccc1O (stereo not drawn) ?
# output inactive

# input Short answer needed: outcome of this test for COc1ccc(C(=O)/C=C/Nc2cccc(C)n2)cc1OC ?
# output active

# input Short answer needed: outcome of this test for C/C(N)=C(/C#N)C(=O)CSc1ccc2c(c1)OCCO2 ?
# output active

# input Short answer needed: outcome of this test for CC1(C)CC(=O)C(C=Nc2ccc3[nH]ncc3c2)=C(O)C1 ?
# output active

Ref: PubChem BioAssay AID675
